- statedConditions: in methanol, 331.55 K
observable: solubility (mole fraction)

Field request: solubility (mole fraction) | item: O=c1c2ccccc2sc2ccc(Cl)cc12
0.00112

----------
- statedConditions: in ethyl acetate, 289.15 K
observable: solubility (mole fraction)
Could you keep your reply to the number by itself?

Which solubility (mole fraction) value belongs to O=c1c2ccccc2sc2ccc(Cl)cc12 ?
0.00367

----------
- statedConditions: in 2-butanone, 321.25 K
observable: solubility (mole fraction)
// return a plain number; no unit text

Record request: solubility (mole fraction) value, item O=c1c2ccccc2sc2ccc(Cl)cc12
0.0145

----------
- statedConditions: in acetone, 299.15 K
observable: solubility (mole fraction)
Answer with a bare number; do not write a unit.

// lookup solubility (mole fraction) for O=c1c2ccccc2sc2ccc(Cl)cc12
0.00306

----------
- statedConditions: in toluene, 330.25 K
observable: solubility (mole fraction)
Please give the numeric answer without any surrounding text.

Consider the compound O=c1c2ccccc2sc2ccc(Cl)cc12 and give its measured solubility (mole fraction).
0.039

----------
- statedConditions: in THF, 317.25 K
observable: solubility (mole fraction)
Hey, just send me the number, nothing else.

Could you share which solubility (mole fraction) value was measured for O=c1c2ccccc2sc2ccc(Cl)cc12 ?
0.0113

----------
- statedConditions: in methanol, 335.95 K
observable: solubility (mole fraction)
Number, no unit, nothing else.

What does the data say about its solubility (mole fraction)? Entry: O=c1c2ccccc2sc2ccc(Cl)cc12
0.00134

----------
- statedConditions: in 1,2-dichloroethane, 294.95 K
observable: solubility (mole fraction)
Form: value (number only, do not type unit).

Fill blank: measured solubility (mole fraction) of the compound O=c1c2ccccc2sc2ccc(Cl)cc12 is ____.
0.0121
